# target: T1, RBFOX1 RRM (Homo sapiens, UniProt Q9NWB1 109-208)
# T1 sequence: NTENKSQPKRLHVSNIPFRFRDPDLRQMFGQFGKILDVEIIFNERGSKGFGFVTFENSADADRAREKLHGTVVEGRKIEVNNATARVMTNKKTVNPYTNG
# experimentalDetails: EMSA; HiTS-Eq, 1 nM pool, 10 min; buffer printed only for the single-RNA assays: 10 mM Tris pH 7.5, 150 mM NaCl, 3.4 mM EDTA, 0.001% NP-40, 30 C
# setupConditions: tags: His6 N-terminal (pET28a); label: 5' 32P
Over roughly 16,000 sequences, “ka relative to ugcaugu” has its median near 0.0091; the highest 2% begin near 0.032. The entries come from a sample that favours the highest values as a whole.
readoutType: binding signal

{"columns": ["binder", "reportedMeasurement"],
 "data": [
  ["UGGCGUU (DNA:RNA) RNA: GGGAGACCGGAAUUCAGAUUGUCCUGGCGUUUUAAAUCCCGUCGUAGCCACCA DNA 1: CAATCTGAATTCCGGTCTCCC DNA 2: TGGTGGCTACGACGGGATT", "0.0221 KA relative to UGCAUGU"],
  ["UUGUCUC (DNA:RNA) RNA: GGGAGACCGGAAUUCAGAUUGUCCUUGUCUCUUAAAUCCCGUCGUAGCCACCA DNA 1: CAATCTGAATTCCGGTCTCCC DNA 2: TGGTGGCTACGACGGGATT", "0.0203 KA relative to UGCAUGU"],
  ["AACUUUA (DNA:RNA) RNA: GGGAGACCGGAAUUCAGAUUGUCCAACUUUAUUAAAUCCCGUCGUAGCCACCA DNA 1: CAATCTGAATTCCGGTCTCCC DNA 2: TGGTGGCTACGACGGGATT", "0.000524 KA relative to UGCAUGU"],
  ["GGAGUGG (DNA:RNA) RNA: GGGAGACCGGAAUUCAGAUUGUCCGGAGUGGUUAAAUCCCGUCGUAGCCACCA DNA 1: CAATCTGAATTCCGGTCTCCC DNA 2: TGGTGGCTACGACGGGATT", "0.0151 KA relative to UGCAUGU"]
]}
